Test: Oral bioavailability (BA) in rats
Assay type: in vivo
Conditions: plasma; female Wistar rat, 10.0 mg/kg oral vs 3.0 mg/kg intravenous
Method: Oral Bioavailability (BA) in Rats To a female Wistar rat (210±10 g), the compound (I) was intravenously administered as a solution containing the compound (I) (2.0 mg/mL) in a vehicle containing polysorbate and dextrose (pH5.0) or orally as a suspension of the compound (I) (1.0 mg/mL) in methyl cellulose. […] A plasma sample was analyzed for the compound (I) by the LC-MS/MS method. […] Oral bioavailability was calculated based on dose-normalized oral exposure and intravenous plasma exposure amounts.
MEASUREMENT KIND: bioavailability (%)
Give a bare numeral; the unit % is implied.

Please indicate bioavailability recorded for Cn1cc(-c2nc(N3CCOCC3)c3nc(C(=O)N4CCC(N5CCOCC5)CC4)[nH]c3n2)cn1 [compound (I)]
88
